molecular target: Cellular tumor antigen p53 (Homo sapiens); assay: Primary qHTS for small molecule compounds that upregulate eGFP-tagged delta133p53alpha (in N-terminal) cells. (AID 2060322); conditions: NCI-H358 eGFP-delta133p53alpha fluorescence, 24 h; hits give high values;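 note: cells pre-induced with doxycycline then dosed without doxycycline; series mostly up to about 56 µM; 0% = DMSO vehicle and 100% = reference activator; nearly all actives have a fitted effect of over 75% in size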
Results filed as inconclusive are left out.
I'd appreciate it if you could supply activation values for the items below.
Answers are plain numbers, in %.

# get_value(readout= activation, system= Cellular tumor antigen p53 (Homo sapiens)) for COc1ccc(C2(O)c3c(ccc4c3OC(C)(CCC=C(C)C)C=C4)NC(=O)C2OC)cc1 (configuration not stated)
-4.58

# get_value(readout= activation, system= Cellular tumor antigen p53 (Homo sapiens)) for COC1=CC(=O)CC(C)C12Oc1cc(OC)cc(O)c1C2=O (configuration not stated)
16.8

# get_value(readout= activation, system= Cellular tumor antigen p53 (Homo sapiens)) for Cn1c(=O)c2[nH]c(-c3ccccc3)nc2n(C)c1=O
-37

# get_value(readout= activation, system= Cellular tumor antigen p53 (Homo sapiens)) for C=C[C@]1(C)C[C@@H](OC(=O)CSC2C[C@H]3CC[C@@H](C2)N3C)[C@]2(C)[C@H](C)CC[C@]3(CCC(=O)[C@H]32)[C@@H](C)[C@@H]1O (some centres not stated)
0.477

# get_value(readout= activation, system= Cellular tumor antigen p53 (Homo sapiens)) for Cc1ccccc1CN1C2=NCCN2C(=O)C2=C1CCN(Cc1ccccc1)C2
29

Hey, can you go through the list below and give me activation for every item?
1. C[C@@H]1O[C@@H](OC[C@H]2O[C@@H](OCCc3ccccc3)[C@H](O)[C@@H](O)[C@@H]2O)[C@H](O)[C@H](O)[C@H]1O
2. CCCCOC(=O)c1ccc(O)cc1
3. NC(=S)N/N=C/c1cccnc1
4. NC(=O)CC[C@@H]1NC(=O)[C@H](Cc2ccccc2)NC(=O)[C@H](Cc2ccc(O)cc2)NC(=O)CCSSC[C@@H](C(=O)N2CCC[C@H]2C(=O)N[C@@H](CCCN=C(N)N)C(=O)NCC(N)=O)NC(=O)[C@H](CC(N)=O)NC1=O
5. NC1=N[C@@]2(c3cc(NC(=O)c4ccc(F)cn4)ccc3F)COC[C@@H]2CS1
6. C/C(=C(\CCO)SS/C(CCO)=C(\C)N(C=O)Cc1cnc(C)nc1N)N(C=O)Cc1cnc(C)nc1N
7. C[C@]1(O)CC[C@@H]2C(C(=O)O)=CO[C@@H](O[C@@H]3O[C@H](COC(=O)c4ccc(O)cc4)[C@@H](O)[C@H](O)[C@H]3O)[C@@H]21

-8.4
-13
0.565
-3.35
87.4
-9.6
0.893

These data points were gathered from PubChem BioAssay (NCATS).
